system: HepG2; test: cytotoxicity call (relative viability < 0.9); details: 10 µM
About 3,300 (8.5%) of roughly 39,000 compounds were called active. For the sample, actives were picked, then their nearest neighbours and some compounds at random.
Outcome codes: 1 (active), 0 (inactive)

[[record]]
sample_smiles = "C[C@@H]1CN([C@H](C)CO)C(=O)c2cccc(NC(=O)c3nc4ccccc4s3)c2O[C@H]1CN(C)CC1CCCCC1"
class = 0

[[record]]
sample_smiles = "COc1ccc(NC(=O)N(C)C[C@H]2OCCCC[C@@H](C)Oc3ccc(NS(=O)(=O)c4c(C)noc4C)cc3C(=O)N([C@@H](C)CO)C[C@H]2C)cc1"
class = 0

[[record]]
sample_smiles = "C=CCOC(=O)[C@H]1[C@@H]2C(=O)O[C@@H](c3ccccc3)[C@@H](c3ccccc3)N2[C@@H](c2ccc(OCCOC(=O)[C@H]3C[C@H]4C(=O)N[C@@H](CC(C)C)C(=O)N4[C@H]3c3ccc(O)cc3)cc2)[C@]12C(=O)Nc1ccc(I)cc12"
class = 0

[[record]]
sample_smiles = "COc1cc(C=O)ccc1O"
class = 1

[[record]]
sample_smiles = "C[C@@H]1CCCCO[C@@H](CN(C)C(=O)Nc2ccccc2)[C@@H](C)CN([C@@H](C)CO)C(=O)c2cc(NC(=O)c3ccccc3)ccc2O1"
class = 0


###

tested on: HepG2; assay: cytotoxicity call (relative viability < 0.9); details: 10 µM
Among all 39,000 compounds or so, about 3,300 (8.5%) were called active. The full list was thinned out, with actives kept by preference.
Outcome codes: 1.0 for active, 0.0 for inactive

[[record]]
compound = "CCN(CC)C(C)CN1c2ccccc2Sc2ccccc21.Cl (centres undefined)"
class = 1.0

[[record]]
compound = "C[C@@H]1CCCCO[C@@H](CN(C)CC2CCCCC2)[C@@H](C)CN([C@H](C)CO)C(=O)c2cc(NC(=O)CCCN(C)C)ccc2O1"
class = 0.0

[[record]]
compound = "Cc1nc2[nH]c(C)c(CCC(=O)O)c(=O)n2n1"
class = 0.0

[[record]]
compound = "CCCC(=O)Nc1ccc2c(c1)C(=O)N(C)C[C@@H](OC)[C@@H](C)CN(Cc1ccc(-c3ccccn3)cc1)[C@H](C)CO2"
class = 0.0

[[record]]
compound = "[Fe+3].CC/1=C(CCC(=O)O)/C/2=C/c3[nH]c(c(c3CCC(=O)O)C)/C=C/3\\N=C(/C=C/4\\N=C(\\C=C1/N2)C(=C4C)C=C)C(=C3C)C=C"
class = 1.0

[[record]]
compound = "C[C@@H]1CN([C@@H](C)CO)C(=O)c2cc(NC(=O)Cc3ccccc3)ccc2O[C@@H](C)CCCCO[C@H]1CN(C)S(=O)(=O)c1cccs1"
class = 0.0

[[record]]
compound = "C[C@@H]1CCCCO[C@@H](CN(C)CC2CCCCC2)[C@H](C)CN([C@H](C)CO)C(=O)c2cc(NC(=O)Cc3ccccc3)ccc2O1"
class = 0.0

[[record]]
compound = "CCC(CC)C(=O)N1c2ccccc2Sc2ccccc21"
class = 0.0

[[record]]
compound = "Cc1[nH]c(=O)[nH]c(=O)c1CCC(=O)O"
class = 0.0


###

system: HepG2; test: cytotoxicity call (relative viability < 0.9); conditions: 10 µM
The campaign covered roughly 39,000 compounds. About 3,300 (8.5%) were called active. The sample as a whole holds a higher share of actives than the screen did.
Outcome codes: 1.0 = active, 0.0 = inactive

[[record]]
compound = "C[C@H]1CCCCO[C@@H](CN(C)Cc2ccccc2)[C@@H](C)CN([C@@H](C)CO)C(=O)c2cc(NC(=O)Nc3cccc4ccccc34)ccc2O1"
class = 1.0

[[record]]
compound = "C=CCOC(=O)[C@H]1[C@@H]2C(=O)O[C@@H](c3ccccc3)[C@@H](c3ccccc3)N2[C@@H](c2ccc(OCCOC(=O)[C@H]3C[C@H]4C(=O)NCC(=O)N4[C@H]3c3cccc(OCCO)c3)cc2)[C@]12C(=O)Nc1ccc(I)cc12"
class = 0.0

[[record]]
compound = "C[N+](C)(CCOc1ccccc1)Cc1ccccc1.O=C([O-])c1cc2ccccc2cc1O"
class = 0.0

[[record]]
compound = "C[C@H](CO)N1C[C@H](C)[C@H](CN(C)S(=O)(=O)c2ccc(Cl)cc2)Oc2ccc(NC(=O)Cn3cnnn3)cc2CC1=O"
class = 0.0

[[record]]
compound = "CCOC(=O)CSc1nnc2c3sc4nc(N5CCOCC5)c5c(c4c3ncn12)CC(C)(C)OC5"
class = 1.0

[[record]]
compound = "C[C@@H]1CCCCO[C@H](CN(C)Cc2ccccc2)[C@@H](C)CN([C@H](C)CO)C(=O)c2cc(NC(=O)Nc3cccc4ccccc34)ccc2O1"
class = 0.0

[[record]]
compound = "O=C(C[C@H]1CC[C@@H]2[C@H](COC[C@H](O)CN2S(=O)(=O)c2cccc(F)c2)O1)NCc1ccncn1"
class = 0.0

[[record]]
compound = "C[C@@H]1CN([C@@H](C)CO)C(=O)c2cc(NC(=O)NC3CCCCC3)ccc2O[C@@H](C)CCCCO[C@H]1CN(C)C(=O)C1CCCCC1"
class = 1.0

[[record]]
compound = "COc1ccc(NC(=O)Nc2ccc3c(c2)C(=O)N([C@@H](C)CO)C[C@@H](C)[C@H](CN(C)C(=O)Nc2cccc4ccccc24)OCCCC[C@@H](C)O3)cc1"
class = 0.0

[[record]]
compound = "Cc1noc(C)c1S(=O)(=O)Nc1ccc2c(c1)CC(=O)N([C@@H](C)CO)C[C@H](C)[C@H](CN(C)S(=O)(=O)c1ccc(Cl)cc1)O2"
class = 0.0

[[record]]
compound = "C[C@@H]1CN([C@H](C)CO)C(=O)c2cccc(NC(=O)c3ccncc3)c2O[C@@H]1CN(C)S(=O)(=O)c1cn(C)cn1"
class = 0.0

[[record]]
compound = "O=C(O)CCCCCCCCCCCC[C@@H]1C=CCC1"
class = 0.0

[[record]]
compound = "CC(O)C(=O)[O-].[NH4+] (configuration not stated)"
class = 0.0

[[record]]
compound = "CN(C)C(=O)c1ccc(-c2ccc3n(c2=O)C[C@H]2[C@H](CO)[C@@H](C(=O)NCCc4ccccc4)N[C@@H]32)cc1"
class = 0.0

[[record]]
compound = "C[C@@H]1CCCCO[C@H](CN(C)C(=O)C2CCCCC2)[C@H](C)CN([C@@H](C)CO)C(=O)c2cc(NC(=O)NC3CCCCC3)ccc2O1"
class = 1.0

[[record]]
compound = "C[C@H](CO)N1C[C@H](C)[C@H](CN(C)C(=O)C2CCCCC2)OCCCC[C@H](C)Oc2ccc(NC(=O)NC3CCCCC3)cc2C1=O"
class = 1.0

[[record]]
compound = "CN1CCN(C(=O)C[C@@H]2CC[C@H]3[C@@H](COC[C@H](O)CN3CC3CCCC3)O2)CC1"
class = 0.0

[[record]]
compound = "C[C@@H]1CCCCO[C@H](CN(C)C(=O)C2CCCCC2)[C@@H](C)CN([C@H](C)CO)C(=O)c2cc(NC(=O)NC3CCCCC3)ccc2O1"
class = 0.0

[[record]]
compound = "C[C@@H]1CN([C@H](C)CO)C(=O)c2cc(C#Cc3ccccn3)cnc2O[C@H]1CN(C)C(=O)CCN1CCCCC1"
class = 0.0

[[record]]
compound = "C[N+](C)(CCOc1ccccc1)Cc1ccccc1.O=C(O)c1cc2ccccc2c(Br)c1O"
class = 0.0

[[record]]
compound = "C[C@@H]1CCCCO[C@@H](CN(C)C(=O)Nc2cccc3ccccc23)[C@H](C)CN([C@@H](C)CO)C(=O)c2cc(NS(=O)(=O)c3cccs3)ccc2O1"
class = 0.0

[[record]]
compound = "C[C@@H]1CCCCO[C@@H](CN(C)C(=O)C2CCCCC2)[C@H](C)CN([C@@H](C)CO)C(=O)c2cc(NC(=O)NC3CCCCC3)ccc2O1"
class = 0.0


All figures here come from the antibiotic and cytotoxicity screens of Wong et al. (2023).
